Test system: up to 32 different microorganisms
Assay: in vitro antibacterial activity (MIC), agar dilution on Brain Heart Infusion (BHI) agar with Steers replicator
Assay type: cell-based
Settings: Staphylococcus aureus CMX 642A (code DD); unit assumed
# key: entry, value: log10 MIC
Record value = log10 of MIC given in µg/mL.

{"columns": ["compound", "log10 MIC"],
 "data": [
  ["CC[C@H]1OC(=O)[C@H](C)C(=O)[C@H](C)[C@@H](O[C@@H]2O[C@H](C)C[C@H](N(C)C)[C@H]2O)[C@@](C)(OCCCc2ccccc2)C[C@@H](C)C(=O)[C@H](C)[C@H]2OC(=O)O[C@@]21C", -0.41],
  ["CCC1OC(=O)C(C)C(=O)C(C)C(OC2OC(C)CC(N(C)C)C2O)C(C)(OCC=Cc2cnc3ccccc3c2)CC(C)C(=O)C(C)C2N(CCN(C)C)C(=O)OC12C (stereo not drawn)", -0.41],
  ["CC[C@H]1OC(=O)[C@H](C)C(=O)[C@H](C)[C@@H](O[C@@H]2O[C@H](C)C[C@H](N(C)C)[C@H]2O)[C@@](C)(OCCNCc2ccccc2)C[C@@H](C)C(=O)[C@H](C)[C@@H](O)[C@]1(C)O", 0.79],
  ["CC[C@H]1OC(=O)[C@H](C)C(=O)[C@H](C)[C@@H](O[C@@H]2O[C@H](C)C[C@H](N(C)C)[C@H]2O)[C@@](C)(OCCNCCc2ccccc2)C[C@@H](C)C(=O)[C@H](C)[C@@H](O)[C@]1(C)O", 0.79],
  ["C=CCO[C@@]1(C)C[C@@H](C)C(=O)[C@H](C)[C@H]2NC(=O)O[C@]2(C)[C@@H](CC)OC(=O)[C@H](C)C(=O)[C@H](C)[C@H]1O[C@@H]1O[C@H](C)C[C@H](N(C)C)[C@H]1O", 0.19]
]}

I have this compound here, CC[C@H]1OC(=O)[C@H](C)C(=O)[C@H](C)[C@@H](O[C@@H]2O[C@H](C)C[C@H](N(C)C)[C@H]2O)[C@@](C)(OCCN)C[C@@H](C)C(=O)[C@H](C)[C@@H](O)[C@]1(C)O , and I need its recorded log10 MIC.
0.79

I have this compound here, CC[C@H]1OC(=O)[C@H](C)C(=O)[C@H](C)[C@@H](O[C@@H]2O[C@H](C)C[C@H](N(C)C)[C@H]2O)[C@@](C)(OCC=Cc2cnc3ccccc3c2)C[C@@H](C)C(=O)[C@H](C)[C@H]2OC(=O)O[C@@]21C , and I need its recorded log10 MIC.
-1.00

I have this compound here, CC[C@H]1OC(=O)[C@H](C)C(=O)[C@H](C)[C@@H](O[C@@H]2O[C@H](C)C[C@H](N(C)C)[C@H]2O)[C@@](C)(OCC=Cc2cnc3ccccc3c2)C[C@@H](C)C(=O)[C@H](C)[C@@H](O)[C@]1(C)O , and I need its recorded log10 MIC.
-0.70

I have this compound here, CCC1OC(=O)C(C)C(=O)C(C)C(OC2OC(C)CC(N(C)C)C2O)C(C)(OCC=Cc2ccc3[nH]ccc3c2)CC(C)C(=O)C(C)C2NC(=O)OC12C (stereo not drawn) , and I need its recorded log10 MIC.
-1.30

* * *

System: up to 32 different microorganisms
Assay: in vitro antibacterial activity (MIC), agar dilution on Brain Heart Infusion (BHI) agar with Steers replicator
Assay type: cell-based
Conditions: organism code EE; unit assumed
outcomeMeasure: MIC (µg/mL)
Write it as a number; the unit µg/mL goes unstated.

Sample records with MIC:
{"columns": ["molecule", "MIC (µg/mL)"],
 "data": [
  ["CCC1OC(=O)C(C)C(=O)C(C)C(OC2OC(C)CC(N(C)C)C2O)C(C)(OCC=Cc2ccc3cc(O)c(C(=O)Nc4ccccc4OC)cc3c2)CC(C)C(=O)C(C)C2NC(=O)OC12C (centres unmarked) [Example 206]", 0.78],
  ["CCC1OC(=O)C(C)C(=O)C(C)C(OC2OC(C)CC(N(C)C)C2O)C(C)(OCC#CC=Cc2ccccc2)CC(C)C(=O)C(C)C2NC(=O)OC12C (centres unmarked) [Example 291]", 0.05]
]}

Query for up to 32 different microorganisms: what MIC does the record show for CCC1OC(=O)C(C)C(=O)C(C)C(OC2OC(C)CC(N(C)C)C2O)C(C)(OCC=Cc2ccc3cc(OC)ccc3c2)CC(C)C(=O)C(C)C2NC(=O)OC12C (centres unmarked) [Example 283] ?
0.1

Query for up to 32 different microorganisms: what MIC does the record show for CC[C@H]1OC(=O)[C@H](C)C(=O)[C@H](C)[C@@H](O[C@@H]2O[C@H](C)C[C@H](N(C)C)[C@H]2O)[C@@](C)(OCC=O)C[C@@H](C)C(=O)[C@H](C)[C@H]2NC(=O)O[C@@]21C [Example 220] ?
0.2

Query for up to 32 different microorganisms: what MIC does the record show for CCC1OC(=O)C(C)C(=O)C(C)C(OC2OC(C)CC(N(C)C)C2O)C(C)(OCC=Cc2cc3nccnc3cc2[N+](=O)[O-])CC(C)C(=O)C(C)C2NC(=O)OC12C (centres unmarked) [Example 200, R is —CH2CH═CH-(7-nitro-6-quinoxalinyl)] ?
0.1

* * *

Test system: up to 32 different microorganisms
Assay: in vitro antibacterial activity (MIC), agar dilution on Brain Heart Infusion (BHI) agar with Steers replicator
Format: cell-based
Settings: organism code VV; unit assumed
Please respond with Yes when measured MIC is strictly beneath 0.2 µg/mL, and with No in all other cases.

{"columns": ["compound", "groupLabel"],
 "data": [
  ["CCC1OC(=O)C(C)C(=O)C(C)C(OC2OC(C)CC(N(C)C)C2O)C(C)(OCC=Cc2cnc3ccc(C#N)cc3c2)CC(C)C(=O)C(C)C2NC(=O)OC12C (stereo not drawn) [Example 218, R is —CH2CH═CH-(6-cyano-3-quinolyl)]", "Yes"],
  ["CC[C@H]1OC(=O)[C@H](C)C(=O)[C@H](C)[C@@H](O[C@@H]2O[C@H](C)C[C@H](N(C)C)[C@H]2O)[C@@](C)(OCCNOCc2ccccc2)C[C@@H](C)C(=O)[C@H](C)[C@H]2NC(=O)O[C@@]21C [Example 237]", "No"],
  ["CCC1OC(=O)C(C)C(=O)C(C)C(OC2OC(C)CC(N(C)C)C2O)C(C)(OCC=Cc2cnc3ccc(NC(C)=O)cc3c2)CC(C)C(=O)C(C)C2NC(=O)OC12C (stereo not drawn) [Example 203]", "No"],
  ["CCC1OC(=O)C(C)C(=O)C(C)C(OC2OC(C)CC(N(C)C)C2O)C(C)(OCC=Cc2ccnc3ccccc23)CC(C)C(=O)C(C)C2NC(=O)OC12C (stereo not drawn) [Example 213, R is —CH2CH═CH-(4-quinolyl)]", "No"]
]}

hey, is MIC for CCC1OC(=O)C(C)C(=O)C(C)C(OC2OC(C)CC(N(C)C)C2O)C(C)(OCC=Cc2cccc3c([N+](=O)[O-])cccc23)CC(C)C(=O)C(C)C2NC(=O)OC12C (stereo not drawn) [Example 281] lower than 0.2 µg/mL or not?
No

hey, is MIC for CCC1OC(=O)C(C)C(=O)C(C)C(OC2OC(C)CC(N(C)C)C2O)C(C)(OCC=Cc2cnc3ccc(C(=O)OC)cc3c2)CC(C)C(=O)C(C)C2NC(=O)OC12C (stereo not drawn) [Example 216] lower than 0.2 µg/mL or not?
Yes

hey, is MIC for CCC1OC(=O)C(C)C(=O)C(C)C(OC2OC(C)CC(N(C)C)C2O)C(C)(OCC=Cc2cnc3ccc(F)cc3c2)CC(C)C(=O)C(C)C2NC(=O)OC12C (stereo not drawn) [Example 215, R is —CH2CH═CH-(6-fluoro-3-quinolyl)] lower than 0.2 µg/mL or not?
Yes

* * *

# key: entry, value: MIC
Tested on: up to 32 different microorganisms
Assay: in vitro antibacterial activity (MIC), agar dilution on Brain Heart Infusion (BHI) agar with Steers replicator
Format: cell-based
Details: Streptococcus pyogenes PIU 2548 (code NN); unit assumed
Write it as a number; the unit µg/mL goes unstated.

Sample records with MIC:
{"columns": ["compound", "MIC (µg/mL)"],
 "data": [
  ["CC[C@H]1OC(=O)[C@H](C)C(=O)[C@H](C)[C@@H](O[C@@H]2O[C@H](C)C[C@H](N(C)C)[C@H]2O)[C@@](C)(OCC=Cc2ccc(Cl)cc2)C[C@@H](C)C(=O)[C@H](C)[C@H]2OC(=O)O[C@@]21C [Example 74]", 0.39],
  ["CC[C@H]1OC(=O)[C@H](C)C(=O)[C@H](C)[C@@H](O[C@@H]2O[C@H](C)C[C@H](N(C)C)[C@H]2O)[C@@](C)(OCCCc2ccccc2)C[C@@H](C)C(=O)[C@H](C)[C@H]2OC(=O)O[C@@]21C [Example 73]", 0.2],
  ["C=CCO[C@@]1(C)C[C@@H](C)C(=O)[C@H](C)[C@H]2N(C)C(=O)O[C@]2(C)[C@@H](CC)OC(=O)[C@H](C)C(=O)[C@H](C)[C@H]1O[C@@H]1O[C@H](C)C[C@H](N(C)C)[C@H]1O [Example 179]", 0.78],
  ["CCC1OC(=O)C(C)C(=O)C(C)C(OC2OC(C)CC(N(C)C)C2O)C(C)(OCC=Cc2cccnc2)CC(C)C(=O)C(C)C2NC(=O)OC12C (stereo not drawn) [Example 185, R is —CH2CH═CH-(3-pyridyl)]", 0.2],
  ["CC[C@H]1OC(=O)[C@H](C)C(=O)[C@H](C)[C@@H](O[C@@H]2O[C@H](C)C[C@H](N(C)C)[C@H]2O)[C@@](C)(OCC=NO)C[C@@H](C)C(=O)[C@H](C)[C@@H](O)[C@]1(C)O [Example 5]", 6.2]
]}

Query for up to 32 different microorganisms: what MIC does the record show for CCC1OC(=O)C(C)C(=O)C(C)C(OC2OC(C)CC(N(C)C)C2O)C(C)(OCC=Cc2ccc3ncccc3c2)CC(C)C(=O)C(C)C2NC(=O)OC12C (stereo not drawn) [Example 194, R is —CH2CH═CH-(6-quinolyl)] ?
0.05

Query for up to 32 different microorganisms: what MIC does the record show for CC[C@H]1OC(=O)[C@H](C)C(=O)[C@H](C)[C@@H](O[C@@H]2O[C@H](C)C[C@H](N(C)C)[C@H]2O)[C@@](C)(OCc2ccc3ccccc3c2)C[C@@H](C)C(=O)[C@H](C)[C@@H](O)[C@]1(C)O [Example 173] ?
3.1

Query for up to 32 different microorganisms: what MIC does the record show for CC[C@H]1OC(=O)[C@H](C)C(=O)[C@H](C)[C@@H](O[C@@H]2O[C@H](C)C[C@H](N(C)C)[C@H]2O)[C@@](C)(OCCNCc2ccccc2)C[C@@H](C)C(=O)[C@H](C)[C@@H](O)[C@]1(C)O [Example 9] ?
0.78

Query for up to 32 different microorganisms: what MIC does the record show for CCC1OC(=O)C(C)C(=O)C(C)C(OC2OC(C)CC(N(C)C)C2O)C(C)(OCC=Cc2cnc3ccccc3c2)CC(C)C(=O)C(C)C2N(CCN(C)C)C(=O)OC12C (stereo not drawn) [Example 182] ?
0.39
